# subject-of-test: hNav1.5 (Homo sapiens, UniProt Q14524)
# Sequence (Q14524 whole entry): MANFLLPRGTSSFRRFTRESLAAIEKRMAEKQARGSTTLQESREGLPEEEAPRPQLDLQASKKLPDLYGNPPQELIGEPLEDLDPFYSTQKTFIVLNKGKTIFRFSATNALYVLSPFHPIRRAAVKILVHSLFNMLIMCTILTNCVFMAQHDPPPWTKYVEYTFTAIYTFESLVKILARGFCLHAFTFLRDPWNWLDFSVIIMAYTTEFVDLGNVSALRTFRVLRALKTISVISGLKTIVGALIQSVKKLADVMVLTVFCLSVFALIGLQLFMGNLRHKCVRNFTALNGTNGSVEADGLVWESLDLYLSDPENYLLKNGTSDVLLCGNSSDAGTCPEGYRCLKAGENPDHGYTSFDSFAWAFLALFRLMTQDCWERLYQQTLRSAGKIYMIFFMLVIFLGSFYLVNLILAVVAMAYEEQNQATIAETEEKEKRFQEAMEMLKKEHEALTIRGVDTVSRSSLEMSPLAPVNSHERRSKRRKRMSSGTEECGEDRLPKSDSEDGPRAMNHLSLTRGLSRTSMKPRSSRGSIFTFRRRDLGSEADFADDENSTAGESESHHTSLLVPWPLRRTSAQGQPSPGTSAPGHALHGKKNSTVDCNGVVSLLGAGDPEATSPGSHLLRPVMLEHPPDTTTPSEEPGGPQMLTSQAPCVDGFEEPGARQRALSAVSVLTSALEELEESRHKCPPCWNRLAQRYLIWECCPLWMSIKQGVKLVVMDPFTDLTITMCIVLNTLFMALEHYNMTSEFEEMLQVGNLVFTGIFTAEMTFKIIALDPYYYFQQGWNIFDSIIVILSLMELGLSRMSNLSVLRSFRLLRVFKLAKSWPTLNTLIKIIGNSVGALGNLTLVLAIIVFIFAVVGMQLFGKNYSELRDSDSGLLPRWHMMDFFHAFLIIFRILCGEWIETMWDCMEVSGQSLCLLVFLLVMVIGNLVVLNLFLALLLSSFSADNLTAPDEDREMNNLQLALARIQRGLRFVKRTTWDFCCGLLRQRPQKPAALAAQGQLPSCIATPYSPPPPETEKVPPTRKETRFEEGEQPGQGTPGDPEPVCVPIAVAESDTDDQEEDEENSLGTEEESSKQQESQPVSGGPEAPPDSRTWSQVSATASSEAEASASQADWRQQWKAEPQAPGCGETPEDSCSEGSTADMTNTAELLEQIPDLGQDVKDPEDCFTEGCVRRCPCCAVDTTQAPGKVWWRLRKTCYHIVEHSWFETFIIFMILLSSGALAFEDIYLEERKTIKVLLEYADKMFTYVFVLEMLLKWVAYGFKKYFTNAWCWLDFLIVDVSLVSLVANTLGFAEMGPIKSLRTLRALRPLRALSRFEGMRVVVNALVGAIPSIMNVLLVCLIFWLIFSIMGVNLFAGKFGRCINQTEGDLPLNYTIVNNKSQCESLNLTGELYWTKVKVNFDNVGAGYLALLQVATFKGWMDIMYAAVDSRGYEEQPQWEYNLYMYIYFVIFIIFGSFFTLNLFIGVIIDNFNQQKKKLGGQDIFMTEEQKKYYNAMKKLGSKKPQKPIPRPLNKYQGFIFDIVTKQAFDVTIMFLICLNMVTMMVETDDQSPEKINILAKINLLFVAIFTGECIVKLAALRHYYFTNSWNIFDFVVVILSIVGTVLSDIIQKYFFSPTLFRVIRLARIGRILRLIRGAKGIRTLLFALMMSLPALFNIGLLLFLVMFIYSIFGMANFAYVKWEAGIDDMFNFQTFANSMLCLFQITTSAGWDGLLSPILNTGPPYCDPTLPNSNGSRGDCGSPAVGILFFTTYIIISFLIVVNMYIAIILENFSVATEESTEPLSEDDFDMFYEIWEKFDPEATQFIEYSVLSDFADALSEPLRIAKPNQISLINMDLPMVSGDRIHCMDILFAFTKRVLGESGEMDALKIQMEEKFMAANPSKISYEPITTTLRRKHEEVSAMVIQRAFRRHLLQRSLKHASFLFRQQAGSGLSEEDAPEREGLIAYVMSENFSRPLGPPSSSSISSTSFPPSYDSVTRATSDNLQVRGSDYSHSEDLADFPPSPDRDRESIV
# experiment: Block development, interaction with the inactivated state: kinetic parameters (double-pulse protocol)
attribute-measured: Ki (µM)
Answers are plain numbers, in µM.

Input: Sample CNCC[C@@H](Oc1ccccc1C)c1ccccc1 — what was its Ki?
Output: 2.57

* * *

# subject-of-test: hNav1.5 (Homo sapiens, UniProt Q14524)
# experiment: Interaction with the inactivated state: steady-state concentration-response relationship
# assay-conditions: affinity for the inactivated state (Ki), calculated from Kapp by Eq. 6; holding potential around half maximal inactivation; N = 5
attribute-measured: Ki (nM)
Numbers only, in nM.

Input: Sample CNCC[C@@H](Oc1ccccc1C)c1ccccc1 — what was its Ki?
Output: 1590

* * *

# subject-of-test: hNav1.5 (Homo sapiens)
# experiment: Interaction with the inactivated state: steady-state concentration-response relationship
# assay-conditions: apparent IC50 (IC50app), single experiment of Figure 6B; partly inactivated channels
attribute-measured: pIC50
One number for each entry, as −log10 of the molar value.

Input: Sample CNCC[C@@H](Oc1ccccc1C)c1ccccc1 [atomoxetine] — what was its pIC50?
Output: 5.64

* * *

# subject-of-test: hNav1.5 (Homo sapiens, UniProt Q14524)
# experiment: Interaction with the inactivated state: steady-state concentration-response relationship
# assay-conditions: Ki (inactivated state), single experiment of Figure 6B; Eq. 6
attribute-measured: Ki
Quote the value and follow it with the unit of measurement.

Input: Field: Ki (hNav1.5 (Homo sapiens, UniProt Q14524)). Entry: CNCC[C@@H](Oc1ccccc1C)c1ccccc1
Output: 1.85 µM
